meta.source: patent US20220204611A1

System: T1, soluble human TREM2 protein (TREM2 ECD-huIgG1 Fc fusion protein) (human, UniProt Q9NZC2 19-174, biotinylated)
T1 construct: also called biotinylated soluble human TREM2 protein
T1 sequence: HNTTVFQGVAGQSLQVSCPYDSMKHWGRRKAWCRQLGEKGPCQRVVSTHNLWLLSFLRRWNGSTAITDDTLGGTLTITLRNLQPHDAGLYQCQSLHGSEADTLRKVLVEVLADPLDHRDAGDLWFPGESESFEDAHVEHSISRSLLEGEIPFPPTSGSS
Protocol text: ELISA, hybridoma supernatant on captured biotinylated TREM2 ECD-Fc
Protocol: Exhausted hybridoma supernatants were tested for binding to human TREM2 by ELISA. Briefly, neutravidin plates were generated by incubating a 384 well Corning Assay Plate 3702 with neutravidin (Thermo 3100B) at 10 μg/mL (40 μL/well) in 1× PBS at 4° C. overnight. The plates were washed with 1× PBS using a Biotek plate washer and then blocked with 1% milk/1× PBS (90 μL/well) at room temperature (RT) for 30 minutes. […] OD readings at 450 nm were obtained with a plate reader.
What OD 450 was measured for each of the following?
Give bare numbers, in OD450.

14C12 (antibody, human IgG2, V domains shown, human IgG2 from hybridoma) VH: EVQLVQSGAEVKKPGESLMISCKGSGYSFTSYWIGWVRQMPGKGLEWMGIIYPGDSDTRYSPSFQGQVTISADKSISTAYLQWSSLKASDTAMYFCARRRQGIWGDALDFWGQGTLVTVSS VL: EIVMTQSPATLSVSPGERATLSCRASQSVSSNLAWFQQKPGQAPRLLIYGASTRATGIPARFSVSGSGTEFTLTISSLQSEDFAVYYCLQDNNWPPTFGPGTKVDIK ... 0.71

Prompt: Respond only with OD 450 recorded for 4G10 (antibody, human IgG2, V domains shown, human IgG2 from hybridoma) VH: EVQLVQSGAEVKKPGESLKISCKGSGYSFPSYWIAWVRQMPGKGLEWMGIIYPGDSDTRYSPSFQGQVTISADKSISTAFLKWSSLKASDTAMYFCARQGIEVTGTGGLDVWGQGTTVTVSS VL: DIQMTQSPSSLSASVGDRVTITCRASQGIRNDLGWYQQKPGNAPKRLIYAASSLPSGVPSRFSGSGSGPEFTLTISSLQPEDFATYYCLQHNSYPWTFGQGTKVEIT
Completion: 3.17
